The entries below come with measured abundance fitness values attached.
B1: POU domain, class 2, transcription factor 3, residues 186 to 260; numbered along this chain, Q9UKI9 (parent)
chain: SDLEELEKFAKTFKQRRIKLGFTQGDVGLAMGKLYGNDFSQTTISRFEALNLSFKNMCKLKPLLEKWLNDAESSP

Variants of: B1
experimental-protocol: abundance fitness (aPCA) (normalised: wild type 0, dead -1); higher = more abundant; growth selection in yeast, the domain comes from the species named
settings: Homo sapiens
quantity-measured: abundance fitness

{"columns": ["change", "obs-value"],
 "data": [
  ["S73Q", -0.059],
  ["Q41R", -0.001],
  ["N51M", -0.022],
  ["K55S", 0.011],
  ["N69I", 0.018],
  ["L29I", 0.022],
  ["M57Y", -0.496],
  ["P62W", -0.365],
  ["F47S", -0.915],
  ["E72I", -0.213],
  ["K66A", -0.055]
]}

Cited source: the Human Domainome abundance scans (Beltran et al. 2025)
